Here the recorded melting point is given for each entry.

CN1Cc2c(Cl)cc(Cl)cc2C(c2ccc(Nc3c(N(C)C4CCCCC4)c(=O)c3=O)cc2)C1 (centres unmarked) [Example 17] | 260 to 265 °C

--- query ---
IN: Give the value of melting point reported for the following: CCCN(CCC)c1c(Nc2ccccc2[C@@H]2CN(C)Cc3c(Cl)cc(Cl)cc32)c(=O)c1=O [Example 40]
OUT: 190 to 194 °C

---

Reported melting point values for a set of compounds

Examples with their reported melting point follow.
CN1Cc2c(Cl)cc(Cl)cc2C(c2ccc(Nc3c(NC4CCCC4)c(=O)c3=O)cc2)C1 (centres unmarked) | 300 to 304 °C
CN1Cc2c(Cl)cc(Cl)cc2[C@H](c2ccc(Nc3c(NC4CC4)c(=O)c3=O)cc2)C1 | 280 to 285 °C
CN1Cc2c(Cl)cc(Cl)cc2C(c2ccccc2Nc2c(NCc3ccco3)c(=O)c2=O)C1 (centres unmarked) | 279 to 283 °C
CC(C)Nc1c(Nc2cccc(C3CN(C)Cc4c(Cl)cc(Cl)cc43)c2)c(=O)c1=O (centres unmarked) | 240 to 244 °C
CN1Cc2c(Cl)cc(Cl)cc2C(c2ccc(Nc3c(N(C)Cc4ccccc4)c(=O)c3=O)cc2)C1 (centres unmarked) | 158 to 162 °C

IN: Assign melting point to the following record: CN1Cc2c(Cl)cc(Cl)cc2C(c2ccccc2Nc2c(NCc3cccnc3)c(=O)c2=O)C1 (centres unmarked)
OUT: 244 to 246 °C

IN: Supply recorded melting point for CN(C)CCNc1c(Nc2cccc(C3CN(C)Cc4c(Cl)cc(Cl)cc43)c2)c(=O)c1=O (centres unmarked) here.
OUT: 198 to 200 °C

IN: Input CN1Cc2c(Cl)cc(Cl)cc2C(c2ccc(Nc3c(N(C)C)c(=O)c3=O)cc2)C1 (centres unmarked) , output reported melting point.
OUT: 208 to 214 °C
